Test system: HepG2
Experiment: Induction of apoptosis in human HepG2 cells assessed as increase in PARP cleavage at 5 uM measured after 24 hrs by Western blot analysis
Assay type: functional, cell-based
Activity calls are given as the source filed them. The calls are words filed in the database; no cut-off is given here.

| compound | system-name | Activity |
| --- | --- | --- |
| COc1cc2c3cc1Oc1c(OC)c(OC)cc4c1C(Cc1ccc(OC(F)(F)F)c(c1)Oc1ccc(cc1)CC3N(C)CC2)N(C)CC4 (racemic; form 1) | HepG2 | inactive |
| COc1cc2c3cc1Oc1c(OC)c(OC)cc4c1C(Cc1cc(cs1)Oc1ccc(cc1)CC3N(C)CC2)N(C)CC4 (racemic; form 1) | HepG2 | inactive |
| COc1ccc2cc1Oc1ccc(cc1)C[C@H]1c3cc(c(OC)cc3CCN1C)Oc1c(OC)c(OC)cc3c1[C@H](C2)N(C)CC3 | HepG2 | inactive |
